SYSTEM_NAME: human subtype 5 somatostatin receptor (Homo sapiens)
Sequence (P35346 whole entry): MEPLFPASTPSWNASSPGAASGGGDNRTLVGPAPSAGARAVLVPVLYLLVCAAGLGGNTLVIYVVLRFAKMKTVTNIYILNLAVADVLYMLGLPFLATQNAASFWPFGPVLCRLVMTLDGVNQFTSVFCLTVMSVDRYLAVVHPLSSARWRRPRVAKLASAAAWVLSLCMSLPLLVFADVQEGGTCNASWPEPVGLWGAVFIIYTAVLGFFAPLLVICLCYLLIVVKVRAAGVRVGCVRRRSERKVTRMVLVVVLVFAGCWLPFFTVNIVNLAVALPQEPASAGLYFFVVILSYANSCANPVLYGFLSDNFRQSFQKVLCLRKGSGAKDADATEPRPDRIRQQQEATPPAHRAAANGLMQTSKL
MEASUREMENT_LABEL: pKi
Entry type: numeric. Quantity: pKi, the -log10 of concentration in molar units.

Prompt line: // returns reported pKi for input CCOc1cc(CN2CCC(NC(=O)c3cccc(C(N)=O)c3)CC2)ccc1Cl [Example 6]
Response line: 6.90

Prompt line: // returns reported pKi for input CCOC(=O)c1c(OCC)cc(CN2CCC(NC(=O)c3cncc(C)c3)CC2)cc1OCC [Example 35]
Response line: 7.72

Values were extracted from patent US7772253B2.
